Tested on: TK-10 renal
Experiment: NCI-60 one-dose screen, 48 h
Settings: 10 µM unless noted
The panel holds about 83,000 compounds, 20% with a hit somewhere; the sample as a whole holds those more often. Active and inactive are the calls of the source. Rule for the calls: active = growth percent below 10; inactive = the rest.
Possible outcomes: yes (active), no (inactive)

{"Compound": "C=C1C(=O)O[C@H]2[C@H]1CC/C(CNC(=O)c1cccc3ccccc13)=C\\CC[C@@]1(C)O[C@@H]21", "Group label": "no"}
{"Compound": "N#Cc1cc(-c2nc3ccccc3s2)c(=O)n(NS(=O)(=O)c2ccccc2)c1N", "Group label": "no"}
{"Compound": "NS(=O)(=O)c1ccc(CCN2C(=O)c3cc(Cl)c(Cl)cc3C2=O)cc1", "Group label": "no"}
{"Compound": "O=C1Nc2ccc(F)cc2/C1=C\\c1c(-c2ccccc2)nc2ccccn12", "Group label": "no"}
{"Compound": "CCSCC1CC(O)(c2ccccc2)CC(c2ccc(F)cc2)O1 (configuration not stated)", "Group label": "no"}
{"Compound": "O=C(Cn1c(C(=O)c2ccccc2)nc2ccccc21)c1ccc(F)cc1", "Group label": "no"}
{"Compound": "CC(=O)c1ccc(NS(=O)(=O)c2cccc(C(=O)Nc3ccc(Br)cc3)c2)cc1", "Group label": "no"}
{"Compound": "CCN(CC)c1ccc(/C=N/NC(=O)CSc2nc3ccccc3c(=O)n2Cc2ccc(S(N)(=O)=O)cc2)c(O)c1", "Group label": "no"}
{"Compound": "CC(c1ccccc1)C(C(=O)c1ccccc1)c1ccccc1 (configuration not stated)", "Group label": "no"}
{"Compound": "CNC(=O)c1cc(Cn2nc(C)c(NC(=O)Nc3ccc(Cl)c(C(F)(F)F)c3)c2C)ccn1", "Group label": "no"}
{"Compound": "CCOC(=O)CC1CSC(N/N=C/c2ccc(-n3cccn3)cc2)=N1 (configuration not stated)", "Group label": "no"}
{"Compound": "C=C(CBr)[C@@H]1CC[C@]2(COC(C)=O)CC[C@]3(C)[C@H](CC[C@@H]4[C@@]5(C)CCCNC(C)(C)[C@@H]5CC[C@]43C)[C@@H]12", "Group label": "no"}
{"Compound": "O=C(N/N=C/c1cc2ccccc2n2nnnc12)Nc1ccccc1", "Group label": "no"}
{"Compound": "COc1ccc(CNCCN2C(=O)c3ccc4c5c(ccc(c35)C2=O)C(=O)N(CCNCc2ccc(OC)c(OC)c2OC)C4=O)c(OC)c1OC", "Group label": "no"}
{"Compound": "CC1(C)NCCC[C@]2(C)[C@H]3CC(=O)[C@H]4[C@@H]5C[C@](C)(CO)CC[C@]5(C)CC[C@@]4(C)[C@]3(C)CC[C@@H]12", "Group label": "no"}
{"Compound": "N=C(N)c1ccc(OCCCCCCCCCCOc2ccc(C(=N)N)cc2)cc1", "Group label": "yes"}
{"Compound": "NS(=O)(=O)c1ccc(CCN2C(=O)C3C(C2=O)C2(Cl)C(Cl)=C(Cl)C3(Cl)C2(Cl)Cl)cc1 (configuration not stated)", "Group label": "no"}
{"Compound": "CCN1C(=O)/C(=C/C(=O)OC)S/C1=N\\NC(=O)c1cc2ccc1/C=C\\c1ccc(cc1)/C=C\\2", "Group label": "no"}
{"Compound": "Cn1ccnc1C(=O)/C=C/c1ccc(CC(=O)NC2CCCCC2)cc1", "Group label": "no"}
{"Compound": "Cc1ccc(C(=O)/C(=C/c2ccc([N+](=O)[O-])cc2)SCc2ccc(Cl)cc2)cc1", "Group label": "no"}
{"Compound": "COc1ccc(C(=O)CC#N)cc1", "Group label": "no"}
{"Compound": "CCOC(=O)c1cc(C(=O)c2ccc(OC)c(OC)c2)n2c1ccc1ccccc12", "Group label": "no"}
{"Compound": "C[C@H]1[C@H]2[C@H]3CC[C@@H]4[C@@]5(C)CC[C@H](O)C(C)(C)[C@@H]5CC[C@@]4(C)[C@]3(C)CC[C@]23CO[C@]1(C)[C@@H](C(=O)/C=C\\c1ccco1)C3", "Group label": "no"}
{"Compound": "CCOc1ccc(/C=N/Nc2cc(C)nc3ccc(Br)cc23)cc1", "Group label": "no"}
{"Compound": "COc1cc2c(=O)n(CCN)c3c4cc5c(cc4ccc3c2cc1OC)OCO5", "Group label": "no"}
{"Compound": "Cc1nn(-c2ccccc2)c(Cl)c1/C=N\\N=c1/sc2ccccc2n1C", "Group label": "no"}
{"Compound": "NC(=S)N1N=C(c2ccccc2)CC1c1cn(-c2ccccc2)nc1-c1ccc(OCc2ccccc2)cc1 (configuration not stated)", "Group label": "no"}
{"Compound": "CC(=O)CCC(=O)OCc1cc(=O)c(O)co1", "Group label": "no"}
{"Compound": "COc1ccc(C(=O)c2nc3ccccc3n2CC(=O)c2ccc(Cl)cc2)cc1", "Group label": "no"}
{"Compound": "Brc1ccc(Nc2csc(-c3ccccn3)n2)cc1", "Group label": "no"}
{"Compound": "Nc1c(S(=O)(=O)O)cc2c3c(cccc13)C(=O)OC2=O", "Group label": "no"}
{"Compound": "CCOC(=O)c1cc(C(=O)c2cc(OC)cc(OC)c2)n2ccc3ccccc3c12", "Group label": "no"}
{"Compound": "C=C(C)[C@@H]1CC[C@]2(C(=O)N3CCN(C)CC3)CC[C@]3(C)[C@H](CC[C@@H]4[C@@]5(C)C/C(=C/c6ccncc6)C(=O)C(C)(C)[C@@H]5CC[C@]43C)[C@@H]12", "Group label": "no"}
{"Compound": "CCOC(=O)[C@@H]1CCCN(S(=O)(=O)c2ccc(S(=O)(=O)N(CC)CC)c(F)c2)C1", "Group label": "no"}
{"Compound": "C/C(=N\\NC(=O)CSc1nc2ccccc2c(=O)n1Cc1ccc(S(N)(=O)=O)cc1)c1ccc(F)cc1", "Group label": "no"}
{"Compound": "Cc1ccc(C(=O)/C(=C\\c2ccc([N+](=O)[O-])cc2)S(=O)Cc2ccc(Cl)cc2)cc1 (configuration not stated)", "Group label": "no"}
{"Compound": "CCCOC(=O)N[C@H]1CCc2c(Cl)c(OC)c(OC)c(OC)c2-c2ccc(SC)c(=O)cc21", "Group label": "no"}

====

Test system: SNB-19 CNS
Test: NCI-60 one-dose screen, 48 h (100 = growth as untreated, 0 = no growth, -100 = all killed)
Conditions: 10 µM unless noted
About 83,000 compounds went through this panel and 20% of them were active in at least one assay; those are over-represented in the sample as a whole.
Param threshold (80%) applies to growth; output MET when value >= threshold, NOT MET when value < threshold.

{"Compound": "Cc1ccc(-n2nc3c(c(C#N)c2=O)CC(c2ccccc2[N+](=O)[O-])C([N+](=O)[O-])=C3O)cc1 (stereo not given)", "Group label": "MET"}
{"Compound": "CC(=O)N1N=C(c2ccc(-n3ccc(C(F)(F)F)n3)c(F)c2)CC1c1ccc[nH]1 (stereo not given)", "Group label": "MET"}
{"Compound": "CC/C(=C\\c1ccc(OC)cc1)C(=O)c1ccc(OC)cc1", "Group label": "MET"}
{"Compound": "N=C(N)c1ccc(OCCCCCCCCCCOc2ccc(C(=N)N)cc2)cc1", "Group label": "NOT MET"}
{"Compound": "Nc1c(S(=O)(=O)O)cc2c3c(cccc13)C(=O)OC2=O", "Group label": "MET"}
{"Compound": "CCN1Cc2nc3sc(C)c(C)c3c(=O)n2C=C1C", "Group label": "NOT MET"}
{"Compound": "O=S(=O)(NCCNc1nccc(-c2c(-c3cccc(O)c3)nc3occn23)n1)c1cccc(F)c1", "Group label": "MET"}
{"Compound": "CC(C)=CCC[C@](C)(O)[C@H]1CC[C@]2(C)[C@@H]1CC[C@@H]1[C@@]3(C)C/C(=C/c4ccccc4)C(=O)C(C)(C)[C@@H]3CC[C@]12C", "Group label": "MET"}
{"Compound": "COc1cc2nc(-c3ccc(Cl)cc3)cc(OCCCN3CCC(O)CC3)c2cc1OC", "Group label": "NOT MET"}
{"Compound": "Cc1ccc(-c2nc3ccccn3c2/C=C2/C(=O)Nc3cc(Cl)ccc32)cc1", "Group label": "MET"}
{"Compound": "O=S(=O)(NCCNc1nccc(-c2c(-c3cccc(F)c3)nc3sccn23)n1)c1ccc(Br)cc1", "Group label": "NOT MET"}
{"Compound": "COc1ccc(/C=C2\\Oc3cc(OCCCCCN4CCCCC4)ccc3C2=O)cc1OC", "Group label": "MET"}
{"Compound": "O=C(CSc1nc2ccccc2[nH]1)NCc1ccccc1", "Group label": "MET"}
{"Compound": "C=C(C)[C@@H]1CC[C@]2(C(=O)N[C@@H](Cc3ccccc3)C(=O)OC)CC[C@]3(C)[C@H](CC[C@@H]4[C@@]5(C)CCC(=O)C(C)(C)[C@@H]5CC[C@]43C)[C@@H]12", "Group label": "MET"}
{"Compound": "COc1ccc(C(C)=O)c(OC)c1", "Group label": "MET"}
{"Compound": "Cc1ccc(-c2csc(NC(=O)CSc3nc(-c4ccccc4)cc(=O)[nH]3)n2)cc1", "Group label": "MET"}
{"Compound": "CCN(CC)CC[n+]1cc2cc(OC)c(OC)cc2c2ccc3cc4c(cc3c21)OCO4", "Group label": "NOT MET"}
{"Compound": "OC(c1ccc(F)c(C(F)(F)F)c1)c1cnccc1NC1CCCCC1 (stereo not given)", "Group label": "MET"}
{"Compound": "CC1(C)CC[C@]2(C(=O)O)CC[C@]3(C)C(=CC[C@@H]4[C@@]5(C)Cc6c([nH]c7ccccc67)C(C)(C)[C@@H]5CC[C@]43C)[C@@H]2C1", "Group label": "NOT MET"}
